# subject-of-test: Apoptosis regulator Bcl-2 (Homo sapiens, UniProt P10415)
# Sequence (P10415 whole entry, the tested form may be a part): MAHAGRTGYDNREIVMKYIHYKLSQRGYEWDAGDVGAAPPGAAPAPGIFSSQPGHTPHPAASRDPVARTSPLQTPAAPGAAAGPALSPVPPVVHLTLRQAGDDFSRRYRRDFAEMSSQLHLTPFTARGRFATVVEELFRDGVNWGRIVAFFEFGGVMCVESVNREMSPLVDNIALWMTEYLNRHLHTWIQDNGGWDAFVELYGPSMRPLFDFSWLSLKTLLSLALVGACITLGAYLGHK
# assay: Inhibition of biotin-linker-Bax BH3 peptide binding to human C-terminal 6His-tagged Bcl-2 (1 to 218 residues) expressed in Escherichia coli BL21 Star (DE3) pLysS measured after 3 hrs by AlphaLISA assay
pIC50: −log10 of the molar value.
The entries below come with measured pIC50 values attached.
parameter-measured: pIC50

# compound, qualifier-symbol, observed-result
data = [
    ("Cc1ccc(C(=O)N2N=C(c3ccc(NS(C)(=O)=O)cc3)CC2c2ccco2)cc1 (racemic)", "<", 5.00),
    ("CCOC(=O)Nc1ccc(C2=NN(C(=O)c3ccc(Br)cc3)C(c3ccccc3)C2)cc1 (racemic)", "=", 5.18),
    ("O=C(Nc1ccc(C2=NN(C(=O)c3ccc(Br)cc3)C(c3ccccc3)C2)cc1)OC1CC1 (racemic)", "=", 4.82),
]
